Test: amyloid nucleation score (Sup35N fusion, yeast selection) (log enrichment); library NNK3; higher = more nucleation; inactive = no reads after selection;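 note: zero at mode of non-aggregating sequences after 7 days selection at 30°C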
Reported metric: amyloid nucleation score

{"columns": ["Substance", "amyloid nucleation score"],
 "data": [
  ["VCGNMVSLVVHPFLFSYVCD", "inactive"],
  ["SPDHLGRLLY", "inactive"],
  ["LIYMLCYFRLLPTCGQVINR", "inactive"],
  ["WYNDVMEVESLISYVDFFRE", "inactive"],
  ["YDNVDNYTTEISVNGCLMMN", "inactive"]
]}

Memo: `RGFAVSF` , reported amyloid nucleation score: -0.678

====

Assay: amyloid nucleation score (Sup35N fusion, yeast selection) (log enrichment); library NNK2; higher = more nucleation; inactive = no reads after selection
Label scheme for amyloid nucleation score: lo: < -0.2; med: ≥ -0.2 and < 0.4; hi: ≥ 0.4

{"columns": ["Substance", "Class label"],
 "data": [
  ["HSLFRLLRTSVHAEKSWSNS", "hi"]
]}

Ask: Which category fits this record: `GVVARSIVAGNLALIIRRRM`
Result: med

Ask: Exercise: read the entry `HGYSWVVI` and state which class it falls under.
Result: med

Ask: Lab note: which band did `SIRSLMGVRSKNSYCRLTVR` land in?
Result: med

Ask: Which amyloid nucleation score band matches `FGGIFCFSLYR` ?
Result: hi

Ask: Hey, which category is `GMLSTTALNLLNMVICYYSL` in, do you know?
Result: hi

Ask: Hello team, could you let me know which band the following substance falls into: `MGQTVSRPWQAGSLYGANPC`
Result: hi

Ask: Which category fits this record: `KVPMICSMEWRPLVSSHCTR`
Result: lo

Ask: Quick check: band for `HHRGMIMLHNINYLRSFNAT`
Result: lo

Ask: The entry to classify is `SSIVEDGLTLLNGGNRIDGY` ; which class holds it?
Result: hi
